System: hα2A receptor (Homo sapiens)
Construct: expressed in transfected cells; host or cells: CHO cells, stably transfected; membrane preparation
Sequence (P08913 whole entry): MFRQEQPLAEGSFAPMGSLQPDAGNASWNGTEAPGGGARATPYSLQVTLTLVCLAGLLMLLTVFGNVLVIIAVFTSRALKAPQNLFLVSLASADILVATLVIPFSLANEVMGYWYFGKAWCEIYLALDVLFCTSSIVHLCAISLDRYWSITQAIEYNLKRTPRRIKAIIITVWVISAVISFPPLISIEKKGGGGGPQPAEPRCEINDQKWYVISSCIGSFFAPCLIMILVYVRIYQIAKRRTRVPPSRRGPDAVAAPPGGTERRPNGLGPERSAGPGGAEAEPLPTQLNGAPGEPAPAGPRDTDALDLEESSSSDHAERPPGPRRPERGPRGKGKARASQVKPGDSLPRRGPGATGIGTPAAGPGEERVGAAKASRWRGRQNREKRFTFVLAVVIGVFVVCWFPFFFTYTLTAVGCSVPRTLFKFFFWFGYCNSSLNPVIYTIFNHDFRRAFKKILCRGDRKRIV
Test method notes: Radioligand binding experiment for α2A-adrenoceptor ([3H]raulwolscine, CHO cell membranes)
Condition label: [3H]raulwolscine binding, read-out: h-α2A pIC50 (converted)
Readout name: log10(IC50) (log10 of the value in nM)
# values: log10(IC50), units nM

C/C(=C\c1ccccc1)CN1CCN(c2nccn(CC(=O)c3ccccc3)c2=O)CC1 [12-5] :: 2.50
CCOC(=O)CN(Cc1ccccc1)C(=O)Cn1ccnc(NC2CCN(C/C(C)=C/c3ccccc3)CC2)c1=O [1-101] :: 2.10
C/C(=C\c1ccccc1)CN1CCC(Nc2nccn(-c3ccc(N4CCN(c5ccccc5)CC4)cc3)c2=O)CC1 [2-28] :: 2.00
CC(C)(C)OC(=O)NCCCn1ccnc(NC2CCN(C/C=C/c3ccccc3)CC2)c1=O [16-4] :: 2.60
C/C(=C\c1ccccc1)CN1CCC(Nc2nccn(CCCN(C)S(=O)(=O)c3ccccc3)c2=O)CC1 [1-160] :: 2.20

Query: For the compound shown here, C/C(=C\c1ccccc1)CN1CCC(Nc2nccn(-c3cccc(N4CCOCC4)c3)c2=O)CC1 [2-42] , give the reported log10(IC50).
Result: 0.90

Query: What value of log10(IC50) has been recorded for this entry: COc1ccc(-n2ccnc(NC3CCN(C/C(C)=C/c4ccccc4)CC3)c2=O)cc1 [3-9]
Result: 0.70

Query: Would you mind telling me what log10(IC50) value was observed for CCc1ccc(-n2ccnc(NC3CCN(C/C(C)=C/c4ccccc4)CC3)c2=O)cc1 [5-4] ?
Result: 1.60

Query: log10(IC50); subject: C/C(=C\c1ccccc1)CN1CCC(Nc2nccn(-c3cccc(NCCc4ccccc4)c3)c2=O)CC1 [1-58]
Result: 1.40

Query: # log10(IC50) lookup, item C/C(=C\c1ccccc1)CN1CCC(Nc2nccn(CC(=O)NCc3ccco3)c2=O)CC1 [1-147]
Result: 1.70
